Provenance of the data: the supplement of paper PMC13207355

Reported values of surviving fraction for individual entries
- System: E57 (patient-derived glioblastoma stem cells of mesenchymal subtype)
- TEST SUMMARY: surviving fraction (nuclei count normalised to DMSO); higher = more cells surviving (less toxic)
- TEST PARAMETERS: 111.1 nM; exposure time: 72 h
// return a plain number; no unit text

// known answers, use as guide
COMPOUND	surviving fraction
Clc1ccc(C(Cn2ccnc2)OCc2ccsc2Cl)c(Cl)c1 (stereo not drawn)	1.04
CCCCCCNC(=O)n1cc(F)c(=O)[nH]c1=O	0.922
COc1ccc([C@@H]2CC(=O)c3c(O)cc(O[C@@H]4O[C@H](CO[C@@H]5O[C@@H](C)[C@H](O)[C@@H](O)[C@H]5O)[C@@H](O)[C@H](O)[C@H]4O)cc3O2)cc1O	0.961

stdin: GET /values?readout=surviving fraction&item= CC(C)CC(=O)N[C@H](C(=O)N[C@H](C(=O)N[C@@H](CC(C)C)[C@@H](O)CC(=O)N[C@@H](C)C(=O)N[C@@H](CC(C)C)[C@@H](O)CC(=O)O)C(C)C)C(C)C
stdout: 1.02

stdin: GET /values?readout=surviving fraction&item= Oc1ccc(OCc2ccccc2)cc1
stdout: 1.05

----------
- System: E34 (patient-derived glioblastoma stem cells of proneural subtype);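 also: cell Painting imaging in 384-well plates, CellProfiler features reduced to at least 20 principal components, Euclidean distance versus same-plate DMSO vehicle wells (0.1% v/v), median over six images per well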
- TEST SUMMARY: phenotypic distance (Euclidean, principal components) from DMSO controls (arbitrary units); higher = stronger morphological change
- TEST PARAMETERS: 333.3 nM; exposure time: 72 h
Structures can show the parent of a compound that is named as a salt.
PARAMETER: phenotypic distance

// known answers, use as guide
MOLECULE	REPORTED
COC(=O)C[C@](O)(CCCC(C)(C)O)C(=O)O[C@@H]1C(OC)=C[C@]23CCCN2CCc2cc4c(cc2[C@H]13)OCO4	3.89
C=CC(=O)Nc1cccc(Oc2nc(Nc3ccc(N4CCN(C)CC4)cc3)nc3ccsc23)c1	0.636
CC(C)C[C@H](NC(=O)CNC(=O)c1cc(Cl)ccc1Cl)B(O)O	9.65

stdin: Field: phenotypic distance (E34). Entry: O=C(C1CC1)N1CC[C@@H](Cc2n[nH]c(=O)n2-c2ccc(-c3ccc4occc4c3)cc2)C1
stdout: 2.27

stdin: Field: phenotypic distance (E34). Entry: CCC[C@@H]1C[C@@H](C(=O)N[C@@H]([C@H]2O[C@H](SC)[C@H](O)[C@@H](O)[C@H]2O)[C@@H](C)O)N(C)C1 [Lincomycin hydrochloride]
stdout: 0.802

stdin: Field: phenotypic distance (E34). Entry: CC(C)NCC(O)c1cc(O)cc(O)c1 (stereo not drawn) [Metaproterenol sulfate, orciprenaline sulfate]
stdout: 0.747

stdin: Field: phenotypic distance (E34). Entry: Cc1ncc(CO)c(CO)c1O [Pyridoxine hydrochloride]
stdout: 0.742

----------
- Test system: E57;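 also: nuclei counted by high-content imaging of Hoechst-stained cells in laminin-coated 384-well plates, relative to 0.1% DMSO vehicle wells, with staurosporine as cell-death control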
- TEST SUMMARY: surviving fraction (nuclei count normalised to DMSO); higher = more cells surviving (less toxic)
- TEST PARAMETERS: 111.1 nM; exposure time: 72 h
Structures can show the parent of a compound that is named as a salt.
Outcome label depends on surviving fraction relative to 1: at/above gives true (1), below gives false (0).

stdin: Could you please find out whether C=CC(=O)Nc1cc(Nc2nccc(-c3cn(C)c4ccccc34)n2)c(OC)cc1N(C)CCN(C)C [Osimertinib mesylate] has surviving fraction that meets 1 or exceeds it?
stdout: false (0)

stdin: Could you please find out whether COC(=O)Nc1nc2cc(C(=O)c3ccccc3)ccc2[nH]1 [Mebendazole] has surviving fraction that meets 1 or exceeds it?
stdout: false (0)

stdin: Could you please find out whether Clc1ccc(COC(Cn2ccnc2)c2ccc(Cl)cc2Cl)cc1 (configuration not stated) [Econazole nitrate] has surviving fraction that meets 1 or exceeds it?
stdout: true (1)

stdin: Could you please find out whether COc1cc2c(c(OC)c1OC)-c1ccc(OC)c(=O)cc1[C@@H](NC(C)=O)CC2 [Colchicine] has surviving fraction that meets 1 or exceeds it?
stdout: false (0)

stdin: Could you please find out whether C[C@@H](Oc1cc(-c2cnn(C3CCNCC3)c2)cnc1N)c1c(Cl)ccc(F)c1Cl [Crizotinib] has surviving fraction that meets 1 or exceeds it?
stdout: false (0)
